Measured IC50 accompanies every entry in the list below.
- EXPERIMENTAL TARGET: human DGAT1 (Homo sapiens)
- Construct: made in house; host or cells: Sf9 cells (membrane preparation)
- Sequence (O75907 1-488): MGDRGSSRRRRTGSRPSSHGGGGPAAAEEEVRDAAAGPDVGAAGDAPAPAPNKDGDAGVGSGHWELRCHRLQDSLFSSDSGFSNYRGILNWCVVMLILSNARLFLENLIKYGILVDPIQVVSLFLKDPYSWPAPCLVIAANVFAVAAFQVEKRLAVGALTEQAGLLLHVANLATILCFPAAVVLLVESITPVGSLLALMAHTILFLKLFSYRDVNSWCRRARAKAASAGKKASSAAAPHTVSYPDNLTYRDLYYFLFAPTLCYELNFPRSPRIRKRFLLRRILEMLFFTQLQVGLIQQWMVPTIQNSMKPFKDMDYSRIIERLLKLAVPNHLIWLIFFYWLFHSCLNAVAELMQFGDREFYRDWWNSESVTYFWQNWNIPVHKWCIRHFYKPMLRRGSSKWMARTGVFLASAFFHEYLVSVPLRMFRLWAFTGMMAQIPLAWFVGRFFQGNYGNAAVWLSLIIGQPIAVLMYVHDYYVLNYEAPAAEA
- MEASUREMENT NOTES: DGAT1 enzyme inhibition assay (membrane preparation, LC/MS/MS readout)
- Assay type: biochemical
- TEST SETTINGS: DGAT1 inhibitory activity, table at end of examples
Report as a plain number; the unit µM is understood.

Cc1ccccc1CNC(=O)c1ccc2nc(-c3c(Cl)cccc3Cl)oc2c1 [Example 4-15] :: 6.8
O=C(Nc1cccc(Cl)c1)c1ccc2nc(-c3cccc(Cl)c3Cl)[nH]c2c1 [Example 1-124] :: 0.23
Cc1cccc(C(=O)Nc2ccc3nc(-c4c(Cl)cccc4Cl)[nH]c3c2)c1 [Example 1-11] :: 6.9

## Task Supply recorded IC50 for COC(=O)c1ccc(-c2nc3ccc(C(=O)Nc4cccc(Cl)c4)cc3[nH]2)cc1 [Example 1-136] here.
## Result 12

Just for reference, patent US8222248B2 is where these values come from.
